Tested on: T1, human IL-11 (human, UniProt P20809 22-199)
T1 sequence: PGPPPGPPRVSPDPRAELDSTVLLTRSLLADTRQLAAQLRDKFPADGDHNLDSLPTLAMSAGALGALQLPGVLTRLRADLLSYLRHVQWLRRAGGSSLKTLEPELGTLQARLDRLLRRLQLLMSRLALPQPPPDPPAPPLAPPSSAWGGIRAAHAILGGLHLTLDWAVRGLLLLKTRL
Test protocol: cell-based or functional assay
Measured RGA potency (mean), listed per entry.

TPP-31296 (antibody, IgG4, V domains shown, hIgG4 SPLE, lambda) VH: EVQLLESGGGLVQPGGSLRLSCAASGFTFSHYDMNWLRQAPGKGLEWVGVISYDGSNKFYADSVKGRFTISRDNSKNTLYLQMNSLRAEDTAVYYCARTPGSHFDYWGQGTLVTVSS VL: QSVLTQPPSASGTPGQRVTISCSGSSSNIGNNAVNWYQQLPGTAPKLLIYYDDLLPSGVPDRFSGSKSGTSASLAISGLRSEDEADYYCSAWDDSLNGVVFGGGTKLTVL ... < 170 nM
TPP-31289 (antibody, IgG4, V domains shown) VH: EVQLLESGGGLVQPGRSLRLSCAASGFTFSHYDMNWLRQAPGKGLEWVGVISYDGSNKFYADFVKGRFTISRDNSKNTLYLQMNSLRAEDTAVYYCARTPGSHFDYWGQGTLVTVSS VL: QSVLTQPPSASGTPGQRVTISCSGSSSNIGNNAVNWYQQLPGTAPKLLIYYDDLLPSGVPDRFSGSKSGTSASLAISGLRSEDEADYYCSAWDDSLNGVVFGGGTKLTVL ... < 170 nM

Proceeding to the next binder to report its RGA potency (mean).
Please indicate RGA potency (mean) recorded for TPP-31277 (antibody, IgG4, V domains shown, hIgG4 SPLE, lambda) VH: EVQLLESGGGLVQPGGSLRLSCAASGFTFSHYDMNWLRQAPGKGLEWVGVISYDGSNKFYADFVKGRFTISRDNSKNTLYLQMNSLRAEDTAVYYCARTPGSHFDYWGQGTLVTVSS VL: QSVLTQPPSASGTPGQRVTISCSGSSSNIGSNAVNWYQQLPGTAPKLLIYYDDLLPSGVPDRFSGSKSGTSASLAISGLRSEDEADYYCSAWDDSLNGVVFGGGTKLTVL < 170 nM

Values compiled from patent US20240317847A1.
